This collection of values is drawn from patent US9938316B2.

# assayTarget: Na,K-ATPase α1β1 isoform complex (Homo sapiens, UniProt P05023)
# procedureDetails: biochemical
# Design: made in house; host or cells: Pichia pastoris SMD1165
# protocolConditions: Ki, nM ± SEM α1β1, Table 6
Ki by entry:

compound	unitsOfMeasure	Ki
CC1CN(CC(F)(F)F)CCC(OC2C(O)CC(OC3C(O)CC(OC4CCC5(C)C(CCC6C5CC(O)C5(C)C(C7=CC(=O)OC7)CCC65O)C4)OC3C)OC2C)O1 (centres unmarked) [DMeCF3]	nM	119
CCCN1CCC(OC2C(O)CC(OC3C(O)CC(OC4CCC5(C)C(CCC6C5CC(O)C5(C)C(C7=CC(=O)OC7)CCC65O)C4)OC3C)OC2C)OC(C)C1 (centres unmarked) [DP]	nM	87.7
CC1CN(C(C)(C)C)CCC(OC2C(O)CC(OC3C(O)CC(OC4CCC5(C)C(CCC6C5CC(O)C5(C)C(C7=CC(=O)OC7)CCC65O)C4)OC3C)OC2C)O1 (centres unmarked) [DtB]	nM	135
CC1CN(C[Si](C)(C)C)CCC(OC2C(O)CC(OC3C(O)CC(OC4CCC5(C)C(CCC6C5CC(O)C5(C)C(C7=CC(=O)OC7)CCC65O)C4)OC3C)OC2C)O1 (centres unmarked) [DTMS]	nM	108
CC1CN(C)CCC(OC2C(O)CC(OC3C(O)CC(OC4CCC5(C)C(CCC6C5CC(O)C5(C)C(C7=CC(=O)OC7)CCC65O)C4)OC3C)OC2C)O1 (centres unmarked) [DMe]	nM	103
CC(C)CN1CCC(OC2C(O)CC(OC3C(O)CC(OC4CCC5(C)C(CCC6C5CC(O)C5(C)C(C7=CC(=O)OC7)CCC65O)C4)OC3C)OC2C)OC(C)C1 (centres unmarked) [DIB]	nM	92
CC1CN(C(C)C)CCC(OC2C(O)CC(OC3C(O)CC(OC4CCC5(C)C(CCC6C5CC(O)C5(C)C(C7=CC(=O)OC7)CCC65O)C4)OC3C)OC2C)O1 (centres unmarked) [DIP]	nM	149
CCN1CCC(OC2C(O)CC(OC3C(O)CC(OC4CCC5(C)C(CCC6C5CC(O)C5(C)C(C7=CC(=O)OC7)CCC65O)C4)OC3C)OC2C)OC(C)C1 (centres unmarked) [DEt]	nM	138
